test system: HOP-92 NSCLC; assay: NCI tumour cell line growth inhibition, 48 h
MEASURE NAME: TGI

input: What value of TGI has been recorded for this entry: O=C1OC2C(O)COC2(OCc2c[nH]c3ccccc23)C1O (centres undefined) (tested in a mixture with another compound)
output: > 100 µM

input: Consider the compound shown here: CC(=O)OC1C(OC/C2=C/C3[C@@H](C(C)C)CC=C(C)[C@@H]3CC(OC(=O)/C=C/c3cn(C)cn3)[C@]3(C)C=C[C@@]2(O)O3)OCC(O)C1O (some centres undefined) What is its recorded TGI?
output: > 50 µM

input: Fill blank: measured TGI of the compound N#Cc1ccccc1C#C/C=C\C#Cc1cnccn1 is ____.
output: > 28.4 µM

input: Query: TGI; subject: Cc1ccc(S(=O)(=O)c2ccccn2)cc1
output: > 100 µM
